As shown below, each of these molecules has a reported IC50 value.
# Target under test: Genome polyprotein (West Nile virus, UniProt P06935)
# Sequence (P06935 1371-1501 limits assumed): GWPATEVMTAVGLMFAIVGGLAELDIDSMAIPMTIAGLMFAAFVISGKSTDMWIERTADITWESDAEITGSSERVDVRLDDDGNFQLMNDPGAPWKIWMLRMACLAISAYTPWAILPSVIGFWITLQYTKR
# Sequence (P06935 1502-2120 limits assumed): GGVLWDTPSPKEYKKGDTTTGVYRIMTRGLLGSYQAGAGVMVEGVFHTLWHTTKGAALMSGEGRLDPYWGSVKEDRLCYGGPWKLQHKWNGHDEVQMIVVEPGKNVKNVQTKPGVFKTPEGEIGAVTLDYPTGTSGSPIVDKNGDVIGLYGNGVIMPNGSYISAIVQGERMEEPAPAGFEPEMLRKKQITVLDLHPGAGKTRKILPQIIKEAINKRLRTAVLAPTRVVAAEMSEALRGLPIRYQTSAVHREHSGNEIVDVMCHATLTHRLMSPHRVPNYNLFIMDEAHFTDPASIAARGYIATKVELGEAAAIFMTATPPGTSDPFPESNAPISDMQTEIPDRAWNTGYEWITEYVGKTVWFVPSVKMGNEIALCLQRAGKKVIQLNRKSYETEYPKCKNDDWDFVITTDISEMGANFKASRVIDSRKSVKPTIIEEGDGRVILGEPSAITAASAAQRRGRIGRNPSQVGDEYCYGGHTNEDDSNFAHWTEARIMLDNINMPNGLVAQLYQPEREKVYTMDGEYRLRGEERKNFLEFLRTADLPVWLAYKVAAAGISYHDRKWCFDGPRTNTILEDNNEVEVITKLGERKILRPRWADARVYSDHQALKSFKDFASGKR
# Test protocol: Inhibition West Nile virus NS3B/NS3 protease using 7-amino-4-methylcoumarin as substrate by fluorescence assay
I only need the number, in nM, no unit after it.

compound_string=NCc1ccc(-c2ncc(OCC3CCNCC3)nc2-c2ccc(C3CCOCC3)cc2)cc1 target_under_test="Genome polyprotein (West Nile virus, UniProt P06935)" measurement_type=IC50 value_measured=820
compound_string=CC(C)(C)c1ccc(-c2ncc(OCC3CCNCC3)nc2-c2ccc(C(C)(C)C)cc2)cc1 target_under_test="Genome polyprotein (West Nile virus, UniProt P06935)" measurement_type=IC50 value_measured=9500
compound_string=ONCc1ccc(-c2ncc(OCCC3CCNCC3)nc2-c2ccc(CNO)cc2)cc1 target_under_test="Genome polyprotein (West Nile virus, UniProt P06935)" measurement_type=IC50 value_measured=3200
compound_string=NCc1ccc(-c2ccc(NCC3CCNCC3)nc2-c2ccc(-c3ccoc3)cc2)cc1 target_under_test="Genome polyprotein (West Nile virus, UniProt P06935)" measurement_type=IC50 value_measured=1300
compound_string=CNCc1ccc(-c2ncc(OCC3CCNCC3)nc2-c2ccc(-c3ccoc3)cc2)cc1 target_under_test="Genome polyprotein (West Nile virus, UniProt P06935)" measurement_type=IC50 value_measured=870
compound_string=NCc1ccc(-c2ncc(OCC3CCNCC3)nc2-c2ccc(-c3ccoc3)cc2)cc1 target_under_test="Genome polyprotein (West Nile virus, UniProt P06935)" measurement_type=IC50 value_measured=780
compound_string=NCc1ccc(-c2ncc(OCC3CCNCC3)nc2-c2ccc3[nH]ccc3c2)cc1 target_under_test="Genome polyprotein (West Nile virus, UniProt P06935)" measurement_type=IC50 value_measured=930
compound_string=NCc1ccc(-c2ncc(NCC3CCNCC3)nc2-c2ccc(-c3ccoc3)cc2)cc1 target_under_test="Genome polyprotein (West Nile virus, UniProt P06935)" measurement_type=IC50 value_measured=510

The molecule `c1cc(-c2ccc(-c3ncc(OCC4CCNCC4)nc3-c3ccc(-c4ccsc4)cc3)cc2)cs1` on Genome polyprotein (West Nile virus, UniProt P06935): IC50 was 6600

Considering `NC(=O)c1ccc(-c2ncc(OCC3CCNCC3)nc2-c2ccc(-c3ccoc3)cc2)cc1` , its IC50 with Genome polyprotein (West Nile virus, UniProt P06935) was recorded as 1340

Lab note: molecule `CC(C)(C)C(=O)OCc1ccc(-c2ncc(OCC3CCNCC3)nc2-c2ccc(COC(=O)C(C)(C)C)cc2)cc1` tested on Genome polyprotein (West Nile virus, UniProt P06935); recorded IC50 was 20000

Log: Genome polyprotein (West Nile virus, UniProt P06935), molecule `Cc1cc(CN)ccc1-c1ncc(OCC2CCNCC2)nc1-c1ccc(CN)cc1C` , IC50 = 3600

Reading of IC50 for `Ic1ccc(-c2ncc(OCCC3CCNCC3)nc2-c2ccc(I)cc2)cc1` with Genome polyprotein (West Nile virus, UniProt P06935): 1800
